biological target: P2X7 receptor (Homo sapiens); construct: P2X7 receptor is expressed by human placenta and JEG-Tox; endogenous in cells; host or cells: JEG-3 human trophoblast cell line (ATCC HTB-36) cultured in 2.5% FBS (JEG-Tox); type: cell-based; details: Table 4 summary, 72 h
Sequence (Q99572 whole entry): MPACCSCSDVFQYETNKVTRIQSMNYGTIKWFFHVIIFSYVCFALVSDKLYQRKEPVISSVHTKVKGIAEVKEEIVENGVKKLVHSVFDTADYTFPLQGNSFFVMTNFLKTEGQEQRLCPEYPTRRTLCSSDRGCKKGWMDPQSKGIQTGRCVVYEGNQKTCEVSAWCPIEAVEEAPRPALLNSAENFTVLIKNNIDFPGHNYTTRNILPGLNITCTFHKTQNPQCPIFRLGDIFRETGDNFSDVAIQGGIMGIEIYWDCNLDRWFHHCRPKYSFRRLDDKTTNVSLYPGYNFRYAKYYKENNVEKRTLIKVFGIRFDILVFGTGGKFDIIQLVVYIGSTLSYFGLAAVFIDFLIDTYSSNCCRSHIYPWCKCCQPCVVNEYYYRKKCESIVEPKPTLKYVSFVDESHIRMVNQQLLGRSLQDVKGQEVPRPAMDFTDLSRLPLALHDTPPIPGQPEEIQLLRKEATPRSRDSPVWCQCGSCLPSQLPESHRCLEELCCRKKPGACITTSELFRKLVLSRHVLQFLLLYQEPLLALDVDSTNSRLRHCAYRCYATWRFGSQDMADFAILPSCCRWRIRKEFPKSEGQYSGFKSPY
Could you please report measured P2X7 activation (concentration) for the items listed next?

CCC(C)(C)c1ccc(O)cc1; 0.1 to 50 µM
CC/C(=C(/CC)c1ccc(O)cc1)c1ccc(O)cc1; 7.5 µM
CCCCOC(=O)c1ccccc1C(=O)OCc1ccccc1 [benzyl butyl phthalate]; 0.1 to 10 µM

Please give P2X7 activation (concentration) for each item listed below.
1. Oc1cc(Cl)ccc1Oc1ccc(Cl)cc1Cl
2. CC12CCC(/C(=C/c3ccccc3)C1=O)C2(C)C (stereo not drawn)
3. CCCCC(CC)COC(=O)c1ccccc1C(=O)OCC(CC)CCCC (stereo not drawn) [DEHP, Di(2-ethylhexyl)phtalate]

Response line:
1: 1 µM; 2: 1 to 10 µM; 3: 10 µM

Please give P2X7 activation (concentration) for each item listed below.
1. CCCOC(=O)c1ccc(O)cc1
2. CCCCOC(=O)c1ccccc1C(=O)OCCCC [dibutyl phthalate]
3. CC(C)(c1ccc(O)cc1)c1ccc(O)cc1

Response line:
1. 1 to 100 µM
2. 0.01 to 50 µM
3. 5 to 20 µM
